# ASSAYED TARGET: HIS-PDZ1-2 protein (PSD-95 PDZ1-2 tandem, residues 61-249, with tag …) (human, UniProt P78352 61-249)
# ASSAY NAME: ITC
Ends that are not written are not given here. PEG8‑diacid = PEG8-diacid linker: 4,7,10,13,16,19,22,25,28-nonaoxahentriacontane-1,31-dioic acid
REPORTED ENDPOINT: pKd
Keep in mind that pKd stands for -log10 of concentration in molar terms.

BINDER: {PEG2‑diacid}-IESDV (also: dimer: two peptides N-terminally joined via PEG2-diacid, Dimeric ligand) [Compound 79 (IESDV dimerized with PEG2-diacid)]
pKd: 6.66
//
BINDER: {PEG1‑diacid}-IESDV (also: dimer: two peptides N-terminally joined via PEG1-diacid, Dimeric ligand) [Compound 80 (IESDV dimerized with PEG1-diacid)]
pKd: 6.34

Let us move to another entry and its pKd.
Could you share which pKd value was measured for {PEG8‑diacid}-IESDV (also: dimer: two peptides N-terminally joined via PEG8-diacid, Dimeric ligand) [(IESDV)2PEG8 (76)] ?
6.92
